assay: qHTS of pediatric cancer cell lines to identify multiple opportunities for drug repurposing: Primary screen for U-2 OS cells (AID 1347096); settings: U-2 OS viability, CellTiter-Glo luminescence, 48 h; series mostly up to 46 µM; further: nearly all actives have a fitted effect of over 50% in size
Inconclusive results are not listed. Calls of active or inactive are those of the source. The call rests on the fitted dose curve; in most records, active means well fitted cell-killing curve with a large enough effect; inconclusive means small, poorly fitted or top-dose-only effect; inactive means flat fitted curve, though single readings scatter.
Classes to choose from: 1.0 for active, 0.0 for inactive

Fill in: this test's call for `Nc1nc(=O)n([C@H]2C[C@H](O)[C@@H](CO)O2)cc1F` is ___
0.0

Fill in: this test's call for `OC[C@@H](O)[C@@H](O)[C@H](O)[C@@H](O)CO` is ___
0.0

Fill in: this test's call for COc1cc(C)c(Sc2cnc(NC(=O)c3ccc(CNC(C)C(C)(C)C)cc3)s2)cc1C(=O)N1CCN(C(C)=O)CC1 (stereo unspecified) is ___
0.0

Fill in: this test's call for `C[C@@H](NCc1cc2ccccc2[nH]1)c1cccc2ccccc12` is ___
0.0

Fill in: this test's call for `O=C(O)[C@H](CC(=O)N1C[C@@H]2CCCC[C@H]2C1)Cc1ccccc1` is ___
0.0

Fill in: this test's call for `COc1cc(C)c(C=CC(C)=CC=CC(C)=CC(=O)O)c(C)c1C` is ___
0.0

Fill in: this test's call for `Oc1ccc(-c2ccc(-c3cc(Nc4cccc(CNC5CC5)c4)n[nH]3)cc2)c(O)c1` is ___
1.0

Fill in: this test's call for `O=c1[nH]c(=O)n([C@H]2C[C@@H](O)[C@@H](CO)O2)cc1C=CBr` is ___
0.0

Fill in: this test's call for `CCN(CC)CCNC(=O)c1c(C)[nH]c(C=C2C(=O)Nc3ccc(F)cc32)c1C` is ___
1.0

Fill in: this test's call for `CCCCOc1ccc(C(=O)Nc2ccc(F)cc2F)cc1` is ___
0.0

Fill in: this test's call for `C=CC1=C(C(=O)O)N2C(=O)[C@@H](NC(=O)C(=NO)c3csc(N)n3)[C@H]2SC1` is ___
0.0

Fill in: this test's call for `C=C(C)[C@@H]1CC[C@]2(C(=O)O)CC[C@]3(C)[C@H](CC[C@@H]4[C@@]5(C)CC[C@H](O)C(C)(C)[C@@H]5CC[C@]43C)[C@@H]12` is ___
0.0

Fill in: this test's call for `CCN(CC)Cc1ccc2cc(COC(=O)Nc3ccc(C(=O)NO)cc3)ccc2c1` is ___
1.0

Fill in: this test's call for `CN(C)c1ccc(C(=O)NCCCCCCC(=O)NO)cc1` is ___
1.0

Fill in: this test's call for `CC[C@H]1OC(=O)[C@H](C)[C@@H](O[C@H]2C[C@@](C)(OC)[C@@H](O)[C@H](C)O2)[C@H](C)[C@@H](O[C@@H]2O[C@@H](C)C[C@H](N(C)C)[C@@H]2O)[C@](C)(O)C[C@@H](C)C(=O)[C@H](C)[C@@H](O)[C@]1(C)O` is ___
0.0

Fill in: this test's call for `O=C(O)C(=O)Nc1cccc(C2=NN=N[N]2)c1` is ___
0.0

Fill in: this test's call for `C[C@H](NC(=O)[C@@H](O)c1cc(F)cc(F)c1)C(=O)N[C@@H]1C(=O)N(C)c2ccccc2-c2ccccc21` is ___
0.0

Fill in: this test's call for `CN(C)CC[C@H](c1ccc(Cl)cc1)c1ccccn1` is ___
0.0

Fill in: this test's call for CC(=O)C1=C(O)C=C2Oc3c(C(C)=O)c(O)c(C)c(O)c3C2(C)C1=O (stereo unspecified) is ___
0.0

Fill in: this test's call for `Cn1c(Nc2ccc(C(F)(F)F)cc2)nc2cc(Oc3ccnc(-c4ncc(C(F)(F)F)[nH]4)c3)ccc21` is ___
1.0

Fill in: this test's call for `Cc1coc2c1C(=O)C(=O)c1c-2ccc2c(C)cccc12` is ___
0.0

Fill in: this test's call for `OCc1ccccc1O[C@@H]1O[C@H](CO)[C@H](O)[C@H](O)[C@H]1O` is ___
0.0

Fill in: this test's call for `Cc1cn([C@@H]2O[C@H](CO)[C@@H](O)[C@H]2F)c(=O)[nH]c1=O` is ___
0.0

Fill in: this test's call for `COc1cc([C@@H]2c3cc4c(cc3[C@@H](O[C@@H]3O[C@@H]5CO[C@@H](c6cccs6)O[C@@H]5[C@H](O)[C@@H]3O)[C@H]3COC(=O)[C@H]23)OCO4)cc(OC)c1O` is ___
1.0

Fill in: this test's call for `CO[C@@H]1[C@@H](O)[C@H](O)[C@@H](n2c3c(Cl)cccc3c3c4c(c5c6cccc(Cl)c6[nH]c5c32)C(=O)NC4=O)O[C@@H]1CO` is ___
1.0

Fill in: this test's call for `CCc1c(O)cc(O)c(C(=O)c2ccc(OCCN3CCOCC3)c(OC)c2)c1CC(=O)N(CCOC)CCOC` is ___
0.0

Fill in: this test's call for `CC(=O)N[C@H]1[C@@H]([C@H](O)[C@H](O)CO)OC(C(=O)O)=C[C@@H]1N=C(N)N` is ___
0.0

Fill in: this test's call for `CCN(C(=O)c1c(O)c2c(Cl)cccc2n(C)c1=O)c1ccccc1` is ___
0.0

Fill in: this test's call for C=C1CCC2[C@](C)(CO)C(O)CC[C@]2(C)C1CC=C1C(=O)OCC1O (stereo partly specified) is ___
0.0

Fill in: this test's call for `Cn1cc(C=CC(=O)c2cccc(F)c2)cc1C=CC(=O)NO` is ___
0.0

Fill in: this test's call for `CCS(=O)(=O)Nc1ccc2[nH]c(O)c(C(=Nc3ccc(CN4CCCCC4)cc3)c3ccccc3)c2c1` is ___
1.0

Fill in: this test's call for `COc1ccc(Nc2nccc(NCCO)n2)cc1` is ___
0.0

Fill in: this test's call for `c1cncc(CN2CCC(n3ncc4c(N5CCOCC5)nc(-c5ccc6[nH]ccc6c5)nc43)CC2)c1` is ___
0.0

Fill in: this test's call for `COC1=C(OC)C(=O)C(CC=C(C)CCC=C(C)CCC=C(C)CCC=C(C)CCC=C(C)CCC=C(C)CCC=C(C)CCC=C(C)CCC=C(C)CCC=C(C)C)=C(C)C1=O` is ___
0.0

Fill in: this test's call for `CC(C)C[C@H](NC(=O)[C@@H](NC(=O)c1cccc(-c2ccccc2)n1)[C@@H](C)O)B(O)O` is ___
1.0

Fill in: this test's call for `O=C(C=CC=Cc1ccc2c(c1)OCO2)N1CCCCC1` is ___
0.0

Cited source: PubChem BioAssay (NCATS)
